Documented Human GLP1R cAMP EC50, HEK293T across a set of binders
- TARGET ENTITY: full-length human GLP-1R with an N-terminal FLAG tag (human, UniProt P43220 24-463)
- ASSAY: cell-based or functional assay
Starred links: 1 amine or outer side, 2 acyl side, 3 side chain; linkers in the order of their positions; H or OH if unused. Non-standard residues stand in square brackets, D forms with d. Groups on a side chain read outwards from the residue. No end group written: not given here. *: point of attachment. C18 diacid = O=C(O)CCCCCCCCCCCCCCCCC(=O)*; γGlu = O=C(O)[C@H](CCC(=O)[*:2])N[*:1]; NMeY = CN[C@@H](Cc1ccc(O)cc1)C(=O)O; AEEA = NCCOCCOCC(=O)O; Aib = CC(C)(N)C(=O)O
Answer in nM, number only, no unit symbol.

[[record]]
binder = "[NMeY][Aib]EGTFISDYSIALDR[Aib]AQ[Aib]K([GGPAPAP-γGlu-C18 diacid])FVNWLLAQSPSSGAPPPS-OH [Compound No. 104]"
property = "Human GLP1R cAMP EC50, HEK293T"
value_observed = 66.1

[[record]]
binder = "YXEGTFISDYSIXXDRXAQXDFVNWLLAQSPSSGAPPPS (N-methyl Tyr 1; Aib at 2,13,17,20; Lys(G5-C18 diacid) at 14; C-terminal NH2) [Compound No. 48]"
property = "Human GLP1R cAMP EC50, HEK293T"
value_observed = 87.1

[[record]]
binder = "[NMeY][Aib]EGTFISDYSIALDR[Aib]AQ[Aib]K([AEEA-AEEA-γGlu-γGlu-C18 diacid])FVNWLLAQRG-OH [Compound No. 37]"
property = "Human GLP1R cAMP EC50, HEK293T"
value_observed = 44.7

[[record]]
binder = "[NMeY][Aib]EGTFISDYSIALDRK(2OEGgE‑C18 diacid)HQQNFVNWLLAQRPSSGAPPPS-NH2 [Compound No. 4]"
property = "Human GLP1R cAMP EC50, HEK293T"
value_observed = 38.9


// switching to the query binder
Given YXEGTFISDYSIXXDRXAQXDFVEWLLAQRG (N-terminus H; Aib at 2,13,17,20; Lys(G5-C18 diacid) at 14; C-terminal OH) [Compound No. 139] , respond with its Human GLP1R cAMP EC50, HEK293T.
8.91

Source of measurements: patent US20230143604A1
